This collection of values is drawn from the kinase profiling compilation of Christmann-Franck et al. (2016).

# target-entity: IRAK4 (human)
# assay-info: Caliper, Mobility shift assay off-chip
# measurement-parameters: compound 0.2 µM
observation-type: inhibition (%)

(I) COc1cc2c(Oc3ccc4[nH]c(C)cc4c3F)ncnc2cc1OCCCN1CCCC1
(II) Cc1ccc(Nc2nccc(N(C)c3ccc4c(C)n(C)nc4c3)n2)cc1S(N)(=O)=O
Query block: Select the item whose inhibition value is smaller, choosing between I and II . Answer format: the label of the selected item.
Result block: I
(I: -5.6%, II: -3.9%)

(A) CNC(=O)c1cc(Oc2ccc(NC(=O)Nc3ccc(Cl)c(C(F)(F)F)c3)cc2)ccn1
(B) CCN(CC)CCNC(=O)c1c(C)[nH]c(/C=C2\C(=O)Nc3ccc(F)cc32)c1C
Query block: Determine, for A and B , which has the greater value of inhibition. Answer format: the label of the selected item.
Result block: B
(B: 35.6%, A: -4.6%)

====

# target-entity: WEE1 (human) (UniProt P30291)
# Sequence (P30291 whole entry, looked up): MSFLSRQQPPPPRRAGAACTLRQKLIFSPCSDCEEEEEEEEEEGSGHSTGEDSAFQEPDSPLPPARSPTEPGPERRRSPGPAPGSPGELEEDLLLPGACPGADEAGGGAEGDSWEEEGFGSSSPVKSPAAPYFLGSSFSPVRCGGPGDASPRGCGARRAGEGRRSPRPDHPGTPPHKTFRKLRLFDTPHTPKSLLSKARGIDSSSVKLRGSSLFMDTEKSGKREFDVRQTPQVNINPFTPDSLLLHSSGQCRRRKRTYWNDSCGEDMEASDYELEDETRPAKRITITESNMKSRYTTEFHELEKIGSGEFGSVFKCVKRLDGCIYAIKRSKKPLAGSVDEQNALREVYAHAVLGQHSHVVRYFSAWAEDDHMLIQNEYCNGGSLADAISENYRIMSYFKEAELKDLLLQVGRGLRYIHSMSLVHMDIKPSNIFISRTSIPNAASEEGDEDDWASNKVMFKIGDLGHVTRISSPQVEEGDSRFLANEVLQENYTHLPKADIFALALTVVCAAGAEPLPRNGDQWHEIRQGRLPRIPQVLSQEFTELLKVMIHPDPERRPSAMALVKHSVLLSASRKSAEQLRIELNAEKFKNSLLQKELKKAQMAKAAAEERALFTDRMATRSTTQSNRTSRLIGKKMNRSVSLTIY
# assay-info: ELISA
# measurement-parameters: compound 0.2 µM
observation-type: inhibition (%)

COc1cc2c(Oc3ccc4[nH]c(C)cc4c3F)ncnc2cc1OCCCN1CCCC1 0.5

(I) CCN(CC)CCNC(=O)c1c(C)[nH]c(/C=C2\C(=O)Nc3ccc(F)cc32)c1C
(II) CNC(=O)c1cc(Oc2ccc(NC(=O)Nc3ccc(Cl)c(C(F)(F)F)c3)cc2)ccn1
(III) Cc1ccc(Nc2nccc(N(C)c3ccc4c(C)n(C)nc4c3)n2)cc1S(N)(=O)=O
Query block: Sort low-to-high on inhibition, please. I would appreciate it if you listed the labels in the requested order.
Result block: III, II, I
(III: -3.5%, II: -2%, I: 10%)

====

# target-entity: PDPK1 (human) (UniProt O15530)
# Sequence (O15530 whole entry, looked up): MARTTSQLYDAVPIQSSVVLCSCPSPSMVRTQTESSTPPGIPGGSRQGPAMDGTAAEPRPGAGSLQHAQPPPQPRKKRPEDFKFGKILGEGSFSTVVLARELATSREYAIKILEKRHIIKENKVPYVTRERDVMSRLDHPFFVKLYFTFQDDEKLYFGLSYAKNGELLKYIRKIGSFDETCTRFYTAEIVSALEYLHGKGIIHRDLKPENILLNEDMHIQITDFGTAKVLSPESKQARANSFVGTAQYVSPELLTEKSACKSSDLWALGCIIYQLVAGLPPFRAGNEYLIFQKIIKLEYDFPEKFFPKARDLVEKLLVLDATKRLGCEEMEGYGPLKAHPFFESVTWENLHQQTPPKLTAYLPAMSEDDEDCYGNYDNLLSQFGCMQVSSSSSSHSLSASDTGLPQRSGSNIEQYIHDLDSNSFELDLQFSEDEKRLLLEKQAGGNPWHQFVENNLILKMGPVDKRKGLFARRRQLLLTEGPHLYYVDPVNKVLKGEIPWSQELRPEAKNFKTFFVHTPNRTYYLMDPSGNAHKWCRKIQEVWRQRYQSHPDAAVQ
# assay-info: Caliper, Mobility shift assay off-chip
# measurement-parameters: compound 0.02 µM
observation-type: inhibition (%)

Solved cases (2 shown):
CNC(=O)c1cc(Oc2ccc(NC(=O)Nc3ccc(Cl)c(C(F)(F)F)c3)cc2)ccn1 -1
CNC(=O)c1ccccc1Sc1ccc2c(/C=C/c3ccccn3)n[nH]c2c1 -6.4

(A) COc1cc2c(Oc3ccc4[nH]c(C)cc4c3F)ncnc2cc1OCCCN1CCCC1
(B) Cc1ccc(Nc2nccc(N(C)c3ccc4c(C)n(C)nc4c3)n2)cc1S(N)(=O)=O
Query block: Determine, for A and B , which has the greater value of inhibition. Answer format: the label of the selected item.
Result block: A

====

# target-entity: UniProtKB Q16654
# Sequence (Q16654 whole entry, looked up): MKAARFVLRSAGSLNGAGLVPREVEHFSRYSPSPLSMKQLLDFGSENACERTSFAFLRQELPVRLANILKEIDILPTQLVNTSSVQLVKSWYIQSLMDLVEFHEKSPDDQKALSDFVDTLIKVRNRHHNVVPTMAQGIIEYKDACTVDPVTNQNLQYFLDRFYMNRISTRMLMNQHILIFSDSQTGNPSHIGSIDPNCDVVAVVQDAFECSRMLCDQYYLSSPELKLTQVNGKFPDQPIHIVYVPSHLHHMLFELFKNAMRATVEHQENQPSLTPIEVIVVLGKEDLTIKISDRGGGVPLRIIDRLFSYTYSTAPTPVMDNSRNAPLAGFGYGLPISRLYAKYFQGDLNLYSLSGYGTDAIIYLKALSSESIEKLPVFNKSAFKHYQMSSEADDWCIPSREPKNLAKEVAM
# assay-info: Caliper, Mobility shift assay off-chip
# measurement-parameters: compound 0.02 µM
observation-type: inhibition (%)

Solved cases (2 shown):
Cc1ccc(Nc2nccc(N(C)c3ccc4c(C)n(C)nc4c3)n2)cc1S(N)(=O)=O -0.5
CNC(=O)c1cc(Oc2ccc(NC(=O)Nc3ccc(Cl)c(C(F)(F)F)c3)cc2)ccn1 1.9

(P) COc1cc2c(Oc3ccc4[nH]c(C)cc4c3F)ncnc2cc1OCCCN1CCCC1
(Q) CNC(=O)c1ccccc1Sc1ccc2c(/C=C/c3ccccn3)n[nH]c2c1
Query block: Determine, for P and Q , which has the greater value of inhibition. Answer format: the label of the selected item.
Result block: P

====

# target-entity: INSRR (human)
# assay-info: Caliper, Mobility shift assay off-chip
# measurement-parameters: compound 0.2 µM
observation-type: inhibition (%)

CCN(CC)CCNC(=O)c1c(C)[nH]c(/C=C2\C(=O)Nc3ccc(F)cc32)c1C 75.7

(P) Cc1ccc(Nc2nccc(N(C)c3ccc4c(C)n(C)nc4c3)n2)cc1S(N)(=O)=O
(Q) CNC(=O)c1cc(Oc2ccc(NC(=O)Nc3ccc(Cl)c(C(F)(F)F)c3)cc2)ccn1
(R) COc1cc2c(Oc3ccc4[nH]c(C)cc4c3F)ncnc2cc1OCCCN1CCCC1
Query block: Sort low-to-high on inhibition, please. I would appreciate it if you listed the labels in the requested order.
Result block: Q, P, R
